Values compiled from paper PMC10823475.

target: purified HHAT (Homo sapiens, UniProt Q5VTY9); construct: made in house; experiment: Acyl-cLIP assay, inhibition of purified HHAT; type: biochemical
Sequence (Q5VTY9 whole entry): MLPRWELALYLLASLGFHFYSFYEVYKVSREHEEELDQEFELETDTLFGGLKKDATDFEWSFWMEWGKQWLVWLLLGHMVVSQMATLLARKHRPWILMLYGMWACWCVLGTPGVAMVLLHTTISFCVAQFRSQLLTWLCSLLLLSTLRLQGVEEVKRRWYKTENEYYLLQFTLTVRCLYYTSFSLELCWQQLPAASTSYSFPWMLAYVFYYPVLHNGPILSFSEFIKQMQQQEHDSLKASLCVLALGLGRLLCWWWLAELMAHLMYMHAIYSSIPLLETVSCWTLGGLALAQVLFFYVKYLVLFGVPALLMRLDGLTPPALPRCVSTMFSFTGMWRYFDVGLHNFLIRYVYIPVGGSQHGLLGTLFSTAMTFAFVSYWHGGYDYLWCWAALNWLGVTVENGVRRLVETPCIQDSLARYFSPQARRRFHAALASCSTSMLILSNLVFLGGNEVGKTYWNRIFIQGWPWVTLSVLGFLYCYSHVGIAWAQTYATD
PARAMETER: HHAT inhibition in the acyl-cLIP assay

Here is how some compounds turned out for HHAT inhibition in the acyl-cLIP assay.
CCC(C)CNCC(=O)N1CCc2sccc2C1C1CCCCC1 (stereo not drawn): loss of activity
Clc1ccc(OCC2NCCc3sccc32)cc1 (stereo not drawn): inactive
Cc1cccc(C2NCCc3sccc32)n1 (stereo not drawn): inactive
COCCNC(=O)N1CCc2ccccc2C1c1ccccc1 (stereo not drawn): inactivity

# value of HHAT inhibition in the acyl-cLIP assay, purified HHAT (Homo sapiens, UniProt Q5VTY9), item CC(=O)N1CCc2sccc2[C@H]1c1cccc(C)n1 = no inhibitory activity

# value of HHAT inhibition in the acyl-cLIP assay, purified HHAT (Homo sapiens, UniProt Q5VTY9), item CCCCCCCC(=O)N1CCc2sccc2C1c1ccccc1 (stereo not drawn) = loss of activity

====

assay: in vitro; conditions: PAMPA, pH 7.4, PAMPA Permeability Class pH 7.4
PARAMETER: Papp at 16 h, 10 μM

Field Papp at 16 h, 10 μM (entry Cc1cc(=O)n(-c2ccccc2)n1C [Antipyrine] ) reads 5 to 20 ×10⁻⁶ cm/s

====

assay: Caco-2 permeability assay; assay type: in vitro ADME, human; conditions: human, Caco-2, pH 7.4, 10 µM, without Verapamil; read-out: Caco-2 A>B Recovery
Here the recorded recovery at 2 h, 10 µM is given for each entry.
The reply should contain only the number, in %.

CCC(C)CNCC(=O)N1CCc2sccc2C1c1cccc(C)n1 (stereo not drawn): 88.7
C=CCNCC(=O)N1CCc2sccc2C1COc1ccc(Cl)cc1 (stereo not drawn): 56.7

Consider the additional compound presented here.
Field recovery at 2 h, 10 µM (entry CCC(C)CNCC(=O)N1CCc2sccc2C1c1cccc(C)c1 (stereo not drawn) ) reads 60.5

====

test: Microsomal incubations, mouse liver microsomes; assay type: in vitro ADME; conditions: 1 μM, 30 min
PARAMETER: MLM % metabolized after 30 min (%)
The reply should contain only the number, in %.

CCC(C)CNCC(=O)N1CCc2ccccc2C1c1ccccc1 (stereo not shown): 100.0
C=CCNCC(=O)N1CCc2sccc2C1COc1ccc(Cl)cc1 (stereo not shown): 98.4
CCC(C)CNCC(=O)N1CCc2sccc2C1c1cccc(C)n1 (stereo not shown): 99.7

Field MLM % metabolized after 30 min (entry CCC(C)CNCC(=O)N1CCc2sccc2C1c1cccc(C)c1 (stereo not shown) ) reads 100.0

Field MLM % metabolized after 30 min (entry CC(=O)N1CCc2ccccc2C1c1ccccc1 (stereo not shown) ) reads 99.8

Field MLM % metabolized after 30 min (entry Cc1cccc([C@H]2c3ccsc3CCN2C(=O)CNCC(C)C)n1 ) reads 99.7

Field MLM % metabolized after 30 min (entry CC(=O)N1CCc2sccc2C1c1ccccc1 (stereo not shown) ) reads 99.4

====

target: purified HHAT (Homo sapiens, UniProt Q5VTY9); construct: made in house; experiment: Acyl-cLIP assay, inhibition of purified HHAT; format: biochemical; conditions: from Acyl-cLIP IC50 and clogDpH7.4
PARAMETER: LLEAcyl-cLIP
Write the number on its own, no unit after it.

CC[C@H](C)CNCC(=O)N1CCc2sccc2C1c1cccc(C)n1 (some centres unmarked) [Compound 23]: 4.04
CC(=O)N1CCc2sccc2C1c1cccc(C)n1 (centres unmarked) [Compound 21]: 2.84
CCC(C)CNCC(=O)N1CCc2ccccc2C1c1ccccc1 (centres unmarked) [Compound 38]: 2.82
CC(=O)N1CCc2sccc2[C@@H]1c1cccc(C)n1 [Compound 29]: 3.10

Consider the additional compound presented here.
# value of LLEAcyl-cLIP, purified HHAT (Homo sapiens, UniProt Q5VTY9), item C=CCNCC(=O)N1CCc2sccc2C1c1ccccc1 (centres unmarked) [Compound 12] = 2.94
